Measured values drawn from patent US20260308149A1 for this set.

test target: UniProt O43526
Sequence (O43526 whole entry): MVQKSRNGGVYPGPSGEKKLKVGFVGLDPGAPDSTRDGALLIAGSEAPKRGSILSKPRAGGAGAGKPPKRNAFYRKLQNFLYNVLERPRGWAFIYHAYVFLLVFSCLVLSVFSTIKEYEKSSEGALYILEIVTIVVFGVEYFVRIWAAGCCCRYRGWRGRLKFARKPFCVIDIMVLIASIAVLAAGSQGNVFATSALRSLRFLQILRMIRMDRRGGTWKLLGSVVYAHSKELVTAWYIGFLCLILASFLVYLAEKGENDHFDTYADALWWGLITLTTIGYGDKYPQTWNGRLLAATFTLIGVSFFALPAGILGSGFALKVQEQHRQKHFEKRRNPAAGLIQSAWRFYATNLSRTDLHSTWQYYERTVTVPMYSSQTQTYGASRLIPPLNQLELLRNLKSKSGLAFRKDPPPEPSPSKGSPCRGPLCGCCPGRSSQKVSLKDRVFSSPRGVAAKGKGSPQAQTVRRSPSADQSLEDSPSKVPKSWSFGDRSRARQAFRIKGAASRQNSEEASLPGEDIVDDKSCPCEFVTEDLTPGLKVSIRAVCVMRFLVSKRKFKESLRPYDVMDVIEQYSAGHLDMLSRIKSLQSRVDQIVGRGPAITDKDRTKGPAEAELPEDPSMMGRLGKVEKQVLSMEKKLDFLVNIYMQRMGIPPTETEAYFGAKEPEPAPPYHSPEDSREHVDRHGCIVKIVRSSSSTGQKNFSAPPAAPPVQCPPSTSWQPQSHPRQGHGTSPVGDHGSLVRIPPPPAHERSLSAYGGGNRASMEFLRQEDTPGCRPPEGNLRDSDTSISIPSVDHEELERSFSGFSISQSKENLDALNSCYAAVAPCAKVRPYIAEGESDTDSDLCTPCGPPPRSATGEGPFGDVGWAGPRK
assay text: activation (potentiation) of Kv7.2 current, SyncroPatch 384 electrophysiology in CHO cells stably expressing human Kv7.2
conditions: human Kv7.2 in CHO cells; in presence of 5.6 μM zinc pyrithione; % activation relative to 30 μM ML-213
pEC50: −log10 of the molar value.
reported metric: pEC50

CCOC(CNC(=O)NC1CCCC1)c1cccc(Br)c1 (stereo not drawn) : 5.59

I: O=C(NCC1CCCC1)NCC1(c2cccc(Cl)c2)COC1
II: COC(C)(CNC(=O)[C@H]1C[C@@H]1c1ccccc1)c1cccc(Cl)c1 (mixture of isomers)
Q) Which of the two gives a bigger number for pEC50: I or II ? Output the label that corresponds to your choice.
A) II
(II: 6.77, I: 6.06)
